molecular target: cDNA-expressed human hepatic CYP3A4 (Homo sapiens); construct: purchased BD Gentest 456202; experiment: P450 CYP3A4 inhibitory activity screening (fluorescent assay, BFC substrate); format: in vitro ADME; conditions: Table 6, FIG. 2; read-out: IC50 against CYP3A4 activity
assay.metric: IC50 (µM)
Give bare numbers, in µM.

// query Give the reported IC50 for this compound. C=CCN1CC(=O)N2[C@@H](Cc3ccc(O)cc3)C(=O)N(Cc3ccc4nn(C)nc4c3)C[C@@H]2N1C(=O)NCc1ccccc1 [Compound A]
// result 19.2

---

biological target: cDNA-expressed human hepatic CYP3A4 (Homo sapiens, UniProt P08684); construct: purchased BD Gentest 456202; experiment: P450 CYP3A4 inhibitory activity screening (fluorescent assay, BFC substrate); format: in vitro ADME; conditions: fluorescent assay; read-out: CYP3A4 inhibition, IC50 (μM) fluorescent assay
Sequence (P08684 whole entry): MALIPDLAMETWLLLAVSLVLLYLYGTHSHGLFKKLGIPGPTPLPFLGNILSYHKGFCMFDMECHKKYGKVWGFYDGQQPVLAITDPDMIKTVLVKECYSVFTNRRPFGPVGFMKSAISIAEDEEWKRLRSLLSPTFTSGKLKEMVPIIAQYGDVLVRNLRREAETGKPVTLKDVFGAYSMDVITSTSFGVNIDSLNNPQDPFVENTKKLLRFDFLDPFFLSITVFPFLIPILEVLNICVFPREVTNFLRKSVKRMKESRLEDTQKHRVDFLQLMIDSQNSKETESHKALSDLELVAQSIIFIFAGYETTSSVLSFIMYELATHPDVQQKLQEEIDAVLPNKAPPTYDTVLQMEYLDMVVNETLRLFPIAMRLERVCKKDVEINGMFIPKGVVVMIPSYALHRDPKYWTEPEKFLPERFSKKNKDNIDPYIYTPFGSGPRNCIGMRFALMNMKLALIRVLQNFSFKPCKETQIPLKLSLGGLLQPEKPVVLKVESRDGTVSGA
What IC50 was measured for each of the following?
One number for each entry, in µM.

compound="C=CCN1CC(=O)N2[C@@H](Cc3ccc(O)cc3)C(=O)N(Cc3cccc4c3nnn4CC(=O)NC)C[C@@H]2N1C(=O)NCc1ccccc1 [compound 13]" unit_of_measurement=µM value=32.4

Quick request: IC50 for each listed item, please.
1. C=CCN1CC(=O)N2[C@@H](Cc3ccc(O)cc3)C(=O)N(Cc3cccc4nnn(CC(=O)N5CCOCC5)c34)C[C@@H]2N1C(=O)NCc1ccccc1 [compound 4]
2. C=CCN1CC(=O)N2[C@@H](Cc3ccc(O)cc3)C(=O)N(Cc3cccc4nnn(CC(=O)N(C)C)c34)C[C@@H]2N1C(=O)NCc1ccccc1 [compound 7]
3. C=CCN1CC(=O)N2[C@@H](Cc3ccc(O)cc3)C(=O)N(Cc3cccc4c3nnn4CC(=O)OCC)C[C@@H]2N1C(=O)NCc1ccccc1 [compound 5]
4. C=CCN1CC(=O)N2[C@@H](Cc3ccc(O)cc3)C(=O)N(Cc3ccc4nn(C)nc4c3)C[C@@H]2N1C(=O)NCc1ccccc1 [compound 1]
5. C=CCN1CC(=O)N2[C@@H](Cc3ccc(O)cc3)C(=O)N(Cc3cccc4nnn(CC(=O)NCCOC)c34)C[C@@H]2N1C(=O)NCc1ccccc1 [compound 8]

// result
[6.23, 41.1, 7.4, 19.2, 46.9]

// query Give the reported IC50 for this compound. C=CCN1CC(=O)N2[C@@H](Cc3ccc(O)cc3)C(=O)N(Cc3cccc4c3nnn4CC(=O)N(C)C)C[C@@H]2N1C(=O)NCc1ccccc1 [compound 9]
// result 38
